assay: Solubility of the compound in […] ethanol/[…] Tween-80 at 1 mg; type: physicochemical
measured.parameter: solubility

[
  {
    "smiles.structure": "C/C=C/C(=O)Oc1cc(N(C)c2cc(=O)oc3ccccc23)ccc1OC",
    "solubility": "Soluble"
  },
  {
    "smiles.structure": "C=CCCC(=O)Nc1cc(N(C)c2cc(=O)oc3ccccc23)ccc1OC",
    "solubility": "Soluble"
  },
  {
    "smiles.structure": "COc1ccc(N(C)c2cc(=O)oc3ccccc23)cc1OC(=O)CCCCCl",
    "solubility": "Soluble"
  },
  {
    "smiles.structure": "CCCCCCCCCC(=O)Oc1cc(N(C)c2cc(=O)oc3ccccc23)ccc1OC",
    "solubility": "Insoluble"
  },
  {
    "smiles.structure": "COc1ccc(N(C)c2cc(=O)oc3ccccc23)cc1NC(=O)CCCCCl",
    "solubility": "Soluble"
  },
  {
    "smiles.structure": "CCC(=O)Oc1cc(N(C)c2cc(=O)oc3ccccc23)ccc1OC",
    "solubility": "Insoluble"
  },
  {
    "smiles.structure": "COc1ccc(N(C)c2cc(=O)oc3ccccc23)cc1N",
    "solubility": "Insoluble"
  },
  {
    "smiles.structure": "CC/C=C(\\C)C(=O)Nc1cc(N(C)c2cc(=O)oc3ccccc23)ccc1OC",
    "solubility": "Insoluble"
  }
]

INPUT: Report solubility for `C=CC(=O)Oc1cc(N(C)c2cc(=O)oc3ccccc23)ccc1OC`
OUTPUT: Insoluble

====

test system: SK-OV-3; test: Antiproliferative activity against human SKOV3 cells after 24 hrs by MTT assay; format: functional, cell-based; conditions: SK-OV-3, 24 h
measured.parameter: pIC50
Give bare numbers, as −log10 of the molar value.

[
  {
    "compound": "COc1ccc(N(C)c2nc(C)nc3ccccc23)cc1 [VERUBULIN]",
    "pIC50": 8.49
  }
]

Proceed to the following item.
INPUT: Report pIC50 for COc1cc2c(c(OC)c1OC)-c1ccc(OC)c(=O)cc1[C@@H](NC(C)=O)CC2 [COLCHICINE]
OUTPUT: 7.28

====

test system: SK-OV-3; experiment: Antiproliferative activity against human SKOV3 cells after 24 hrs by MTT assay; assay type: functional, cell-based; conditions: SK-OV-3, 24 h
pIC50: −log10 of the molar value.
For each record, write down the corresponding pIC50.

[
  {
    "smiles.structure": "COc1ccc(-c2ccc(-c3cc(=O)oc4cc(OC)ccc34)s2)cc1",
    "measured.parameter": "pIC50",
    "measured.result": "< 5.30"
  }
]

Would you mind listing pIC50 for each of the following molecules?
1. COc1ccc2c(-c3ccc(-c4ccc5c(c4)OCO5)s3)cc(=O)oc2c1
2. COc1ccc(N(C)c2cc(=O)oc3ccccc23)cc1OCCN1CCOCC1

OUTPUT:
["< 5.30", "< 5.30"]

Every entry's value here was drawn from ChEMBL document CHEMBL4425100.
